Molecular target: Inadl_5, Q8NI35
Sequence (Q8NI35 673-780): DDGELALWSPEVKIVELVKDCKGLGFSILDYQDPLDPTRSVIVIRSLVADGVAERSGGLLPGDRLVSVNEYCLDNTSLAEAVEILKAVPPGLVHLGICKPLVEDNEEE
Experiment: holdup assay
Set-up: key: below the threshold = too weak to quantify, mostly under pKd 3.1 to 4
Conditions: plain residues with an end cap or a label only (N-terminal biotin on a linker: ttds)
reported endpoint: pKd

{"binder": "NPDALPETLV [ARHGAP6, O43182]", "observed value": "below the threshold"}
{"binder": "SHSSKGETAV [FZD7, O75084]", "observed value": "below the threshold"}
{"binder": "KLVIKTETTV [RASSF6, Q6ZTQ3]", "observed value": "below the threshold"}
{"binder": "PFRSRSPSEV [GPR6, P46095]", "observed value": 4.29}
{"binder": "SSIDLWETAL [SLC15A5, A6NIM6]", "observed value": "below the threshold"}
{"binder": "FVETQHQTQV [FAT3, Q8TDW7]", "observed value": "below the threshold"}
{"binder": "PPRQRSETQV [HPV82-E6, Q9IR59]", "observed value": 3.31}
{"binder": "DLDEEEDTHL [PODXL, O00592]", "observed value": "below the threshold"}
